Test system: EKVX NSCLC
Assay: NCI tumour cell line growth inhibition, 48 h
Can you tell me TGI for the items I'm about to list?

Some entries whose results are on file:
compound=COc1ccc(N(/C=C/C(=O)C(F)(F)F)CC(=O)c2ccc(Cl)cc2)cc1 reportedmetric=TGI reportedresult="63.3 µM"
compound=NC(=Nc1ccc(N)cc1)C(N)=Nc1ccc(N)cc1 reportedmetric=TGI reportedresult="> 100 µM"
compound=CCCN(CCC)c1c([N+](=O)[O-])cc(C(=O)N(CCO)CCO)cc1[N+](=O)[O-] reportedmetric=TGI reportedresult="> 100 µM"
compound=CN(/N=C/c1cccc2cccnc12)c1c([N+](=O)[O-])cc([N+](=O)[O-])cc1[N+](=O)[O-] reportedmetric=TGI reportedresult="> 100 µM"
compound=C/C=C/COC(=O)CO[N+](=O)[O-] reportedmetric=TGI reportedresult="> 100 µM"

Provide the reported TGI of each entry below, same order.
1. Cc1nc2sccn2c1C(=O)NC(=O)Nc1ccc(Cl)cc1
2. CCOC(=O)C(C)c1nc2ccc(C(F)(F)F)cc2[nH]c1=O (stereo not given)
3. O=S(=O)(Nc1ccc(F)c(Cl)c1)c1ccc(-c2cnc(C3CC3)o2)cc1
4. CNS(=O)(=O)OCC1OC(n2cnc3c(N)ncnc32)C(O)C1O (stereo not given)

Result:
["> 100 µM", "> 100 µM", "11.9 µM", "> 100 µM"]

Please report TGI for every entry that follows.
1. CSCCCNC(=O)c1csc(-c2csc(CCNC(=O)CNC(=O)CNC(=O)OC(C)(C)C)n2)n1
2. CC1=C[C@H]2C[C@H](C)[C@H]3CC[C@H](C)[C@]4(C1)C(=O)C(O)=C(C)C(=O)[C@@]324
3. S=C=NCCc1ccccc1
4. C#CCN(C(=O)C(F)(F)F)c1ccc(C(=O)c2ccc(N(CC#C)C(=O)C(F)(F)F)cc2)cc1
5. O=c1cc(-c2ccccc2)oc2cc(OC/C(=N/O)c3ccc(F)cc3)ccc12
6. CC(C)(C)OC(=O)CN1CCN(CC(=O)N2CCN(C(=O)OCc3ccccc3)CC2)CCN(CC(=O)OC(C)(C)C)CCN(CC(=O)N2CCN(C(=O)OCc3ccccc3)CC2)CC1

Result:
["> 100 µM", "> 100 µM", "30.4 µM", "> 100 µM", "> 50 µM", "34.3 µM"]

State the recorded TGI for every item in the following list.
1. CC12CCC3c4cc(Br)c(O)c(Br)c4CCC3C1CCC2O (stereo not given)
2. O=C1c2ccccc2C(=O)c2sc(Nc3ccccc3Cl)nc21
3. CC(=O)C(=[N+]=[N-])C(=O)N(C)CCC#N
4. COP(=O)(OC)/C(=C/c1cn(C(c2ccccc2)(c2ccccc2)c2ccccc2)cn1)NC=O
5. COc1ccc(-n2c(=O)n(-c3ccccc3)c(=O)n2-c2ccc(OC)cc2)cc1

Result:
1. 45.4 µM
2. 22.2 µM
3. > 10 µM
4. 56.9 µM
5. > 100 µM

----------
Test system: HL-60(TB) leukemia
Experiment: NCI tumour cell line growth inhibition, 48 h; in the data active means GI50 below about 0.43 µM; inactive means the rest
Use one of these outcomes when replying: yes (active), no (inactive)

compound=COc1cc2c(=O)n(CCN(C)C)c3c4cc5c(cc4ccc3c2cc1OC)OCO5 grouplabel=yes
compound=O=C(C[P+](c1ccccc1)(c1ccccc1)c1ccccc1)C[P+](c1ccccc1)(c1ccccc1)c1ccccc1 grouplabel=yes

Request: Per the records of this test, what outcome belongs to `N#CN1CC[C@H](C(=O)Nc2cc3cc(C(N)=O)ccc3cn2)C1` ?
Result: yes

Request: Just curious, what result did `O=C(CC(=O)c1cccc(Cl)c1)c1cccc(Cl)c1` get here?
Result: no

Request: // outcome(item) with item = `O=c1oc2ccc(-c3ccc(F)cc3F)cc2c(=O)n1-c1ccc(Cl)c(C(F)(F)F)c1`
Result: no

Request: Dear all, I need the recorded test outcome for `CCOC(=O)/C=C/C(=O)[C@H](CC(C)C)NC(=O)[C@H](Cc1ccccc1)NC(=O)OCc1ccccc1` , thank you.
Result: no

Request: Could you check what this test reported for COc1cc(C2C3=C(COC3=O)N(CCO)c3cc4c(cc32)OCO4)cc(OC)c1O (stereo not given) ?
Result: no

Request: How was `Cc1cc(Cl)ccc1Nc1nc(C(F)(F)F)ccc1C(=O)N/N=C/c1ccccc1Cl` classified in this test?
Result: no

Request: Hi, sorry to bother you, what did the test record for COc1ccc(C2C=C(c3ccc(Cl)cc3)N=C3SC=C(C)N32)c(Br)c1 (stereo not given) ?
Result: no

Request: Please let me know the test result on file for `Cc1ccc(NCCN(C)C)c2c(=O)c3ccccc3sc12` .
Result: no
